B1: Membrane-associated guanylate kinase, WW and PDZ domain-containing protein 2, residues 601 to 682; numbered along this chain, Q86UL8 (parent)
chain: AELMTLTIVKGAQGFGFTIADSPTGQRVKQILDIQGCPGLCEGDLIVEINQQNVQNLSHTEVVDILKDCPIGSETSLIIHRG

variants of: B1; test: abundance fitness (aPCA) (normalised: wild type 0, dead -1); higher = more abundant; growth selection in yeast, the domain comes from the species named; conditions: Homo sapiens
Is abundance fitness at least -0.03? Then Fulfilled. If not, Not fulfilled.

Observe how each entry below is paired with its result.
* A20G | Not fulfilled
* R81A | Not fulfilled
* L40P | Not fulfilled
* N53W | Not fulfilled
* I71V | Fulfilled
* A20Q | Fulfilled

// query Does H80S have a reported abundance fitness of at least -0.03?
// result Fulfilled
